Target: T1, human amylin 3(a) receptor (human calcitonin receptor + RAMP-3) (human, UniProt P30988 25-474; O60896 24-148)
T1 sequence (looked up) 1: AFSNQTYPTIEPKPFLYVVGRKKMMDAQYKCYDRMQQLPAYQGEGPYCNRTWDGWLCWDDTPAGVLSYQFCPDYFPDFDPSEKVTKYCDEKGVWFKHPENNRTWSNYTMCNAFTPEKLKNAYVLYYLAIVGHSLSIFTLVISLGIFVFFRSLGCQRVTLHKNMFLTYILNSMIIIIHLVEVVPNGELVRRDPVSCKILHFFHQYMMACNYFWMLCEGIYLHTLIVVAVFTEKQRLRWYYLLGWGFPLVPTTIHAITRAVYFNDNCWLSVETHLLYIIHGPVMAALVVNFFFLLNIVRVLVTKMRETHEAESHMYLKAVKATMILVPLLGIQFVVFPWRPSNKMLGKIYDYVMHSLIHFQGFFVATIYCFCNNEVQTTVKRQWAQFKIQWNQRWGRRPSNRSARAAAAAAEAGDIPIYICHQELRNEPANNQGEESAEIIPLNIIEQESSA
T1 sequence (looked up) 2: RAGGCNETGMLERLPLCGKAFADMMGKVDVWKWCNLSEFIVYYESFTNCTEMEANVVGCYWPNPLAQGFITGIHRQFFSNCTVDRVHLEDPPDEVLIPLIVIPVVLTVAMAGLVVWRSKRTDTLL
Assay: cell-based or functional assay
Starred links: 1 amine or outer side, 2 acyl side, 3 side chain; linkers in the order of their positions; H or OH if unused. Positions of bridges follow the written chain, without caps; N, C: chain ends. Groups on a side chain read outwards from the residue. No end group written: not given here. *: point of attachment. C20 diacid = O=C(O)CCCCCCCCCCCCCCCCCCC(=O)*; C18 diacid = O=C(O)CCCCCCCCCCCCCCCCC(=O)*; γGlu = O=C(O)[C@H](CCC(=O)[*:2])N[*:1]; AEEA = NCCOCCOCC(=O)O
readout: Amylin receptor human EC50 (nM)
Answers are plain numbers, in nM.

For each of the binders below, state Amylin receptor human EC50.
1. {C18 diacid-γGlu}-HCNTATCATQRLAEFLHHSSNNFGPILPPTNVGSNTY-NH2 (disulfide 2-7; not fully specified; printed as N-alpha-[(S)-4-Carboxy-4-(17-carboxyheptadecanoylamino)butyryl]-[His1,Glu14,His17]-pramlintide) [N-alpha-[(S)-4-Carboxy-4-(17-carboxyheptadecanoylamino)butyryl]-[His1,Glu14,His17]-pramlintide]
2. KCNTATCATQRLANFLHHSSNNFGK([AEEA-AEEA-γGlu-19‑carboxyheptadecanoyl])ILSSTNVGSHTY-NH2 (disulfide 2-7)
3. {C20 diacid-γGlu}-HCNTATCATQRLAEFLHHSSNNFGPILPPTNVGSHTY-NH2 (disulfide 2-7; not fully specified; printed as N-alpha-[(S)-4-Carboxy-4-(19-carboxynonadecanoylamino)butyryl]-[His1,Glu14,His17,His35]-pramlintide) [N-alpha-[(S)-4-Carboxy-4-(19-carboxynonadecanoylamino)butyryl]-[His1,Glu14,His17,His35]-pramlintide]

1. 0.0425
2. 0.199
3. 0.121

Entry source: patent US20130005646A1
